Biological target: serum proteins
Assay: 90% serum, 30 kDa ultrafiltration, HPLC
assay metric: Protein binding (%)

[
  {
    "binder": "GFCWYVCVYRNGPRVCYRRCN [SEQ ID NO: 33]",
    "result value": 99
  },
  {
    "binder": "GFCWNVCVYRNGVRVCHRRCN [NZ17074 (the antimicrobial peptide of SEQ ID NO: 70)]",
    "result value": 79
  },
  {
    "binder": "GFCGRVCVRRNGVRVCYRRCN [SEQ ID NO: 172]",
    "result value": 88
  },
  {
    "binder": "GFCWYTCVKRNGLRVCYRRCN [SEQ ID NO: 346]",
    "result value": 86
  },
  {
    "binder": "GFCGRVCVYRNGKRACYRRCN [SEQ ID NO: 386]",
    "result value": 81
  },
  {
    "binder": "GFCYRVCVYRNGVRVCHRRCN [SEQ ID NO: 210]",
    "result value": 89
  },
  {
    "binder": "GACWYVCVYRNGVRVCYRRCN [SEQ ID NO: 3]",
    "result value": 86
  }
]

Provenance of the data: patent US20150031601A1
